// provenance: PubChem BioAssay AID1347075

assay_comment: qHTS assay for MDR1-selective chemotherapeutics: Primary screen using the parental adenocarcinoma cell KB-3-1; note: nearly all actives have a fitted effect of over 60% in size
reported_conditions: KB-3-1 viability, CellTiter-Glo ATP luminescence, 72 h; series mostly up to 46.1 µM
Text: A prime difficulty in effectively treating cancer is the development of cellular resistance to multiple structurally unrelated anticancer drugs, a phenomenon known as multidrug resistance (MDR). […] Numerous strategies to overcome P-gp-mediated MDR have been explored, including the design of drugs that evade recognition and efflux, and development of inhibitors to block efflux and restore drug accumulation. […]
The campaign covered roughly 400,000 compounds. About 5,500 (1.4%) were called active. About 9% were inconclusive and are not listed. Calls come from the whole dose curve; as a rule, active = well fitted cell-killing curve with a large enough effect; inconclusive = small, poorly fitted or top-dose-only effect, or effect the other way; inactive = flat fitted curve, though single readings scatter. Only a selection was taken, and actives are over-represented in it overall.
Labels: YES for active, NO for inactive

compound	class_name
CC(C)(C)OC(=O)NCCCCCNC(=O)c1nc[nH]c1C(=O)NCc1ccccc1	NO
COc1cc(-c2c(-c3ccc4c(c3)OCO4)noc2C)ccc1F	YES
CCc1ccccc1OCCSc1nc(-c2cccs2)nc2cc(=O)[nH]n12	NO
COc1cc2c(-c3ccc4c(c3)OCO4)c(-c3ccsc3)oc(=O)c2cc1OC	NO
COc1ccc(C(O)c2nc(-c3ccc4c(c3)OCO4)cs2)cc1 (stereo not given)	NO
CCOC(=O)c1c(-c2ccc(OC)cc2)oc2ccc(OCc3ccc(C(=O)OC)cc3)cc12	NO
O=C(Nc1ccon1)c1nc[nH]c1C(=O)NCc1ccccc1	YES
O=C(Nc1nc(-c2ccc3c(c2)OCO3)cs1)c1ccncc1	YES
CCOc1ccccc1NC(=O)c1ccc2c(c1)CCN2S(=O)(=O)c1ccc(C)cc1	NO
Cc1oc(C)c2c(=O)cc(-c3ccc4c(c3)OCO4)cc(OC(=O)c3ccc(Cl)cc3)c12	NO

* * *

assay_comment: qHTS assay for MDR1-selective chemotherapeutics: Primary screen using the parental adenocarcinoma cell KB-3-1; note: nearly all actives have a fitted effect of over 60% in size
reported_conditions: KB-3-1 viability, CellTiter-Glo ATP luminescence, 72 h; series mostly up to 46.1 µM
The whole screen tested about 400,000 compounds, of which about 5,500 (1.4%) were called active. About 9% were inconclusive and are not listed. The call rests on the fitted dose curve; in most records, active means well fitted cell-killing curve with a large enough effect; inconclusive means small, poorly fitted or top-dose-only effect, or effect the other way; inactive means flat fitted curve, though single readings scatter. The sample as a whole holds a higher share of actives than the screen did.
Labels: 1 (yes) for active, 0 (no) for inactive

compound	class_name
CCS(=O)(=O)N1CCc2cc(C(=O)N3CCN(c4ccccc4OC)CC3)ccc21	1 (yes)
Cc1cccc(-n2ncc(C(=O)N3CCC(C)CC3)c2C2CCN(C(=O)OC(C)(C)C)CC2)c1	0 (no)
Cc1[nH]c2ccc(C(=O)N3CCN(C)CC3)cc2c1C	0 (no)
Cc1ccc(C)c(NC(=O)CSC2=Nc3ccccc3N=C(c3ccc(F)cc3)C2)c1	0 (no)
COc1ccccc1NS(=O)(=O)c1ccc(C(=O)N2CCN(c3ccccc3O)CC2)cc1	0 (no)
COc1ccc(-c2nnc(SCC(=O)Nc3ccccc3C)o2)cc1OC	0 (no)
Cc1ccc(Oc2c(C(F)(F)F)oc3c(CN4CCCCC4)c(O)ccc3c2=O)cc1	0 (no)
Cc1cccc(N2CCN(C(=O)c3ccc4c(c3)CCN4S(=O)(=O)c3ccccc3)CC2)c1C	1 (yes)
COc1cccc(CNC(=O)C(=O)NCC(c2cccs2)S(=O)(=O)c2ccccc2)c1 (stereo unspecified)	0 (no)
CCOCCn1ccc2c(OCC(=O)NCc3ccc(C)cc3)cccc2c1=O	0 (no)
CC1CN(C(=O)N2CCC(C(=O)NCc3cccs3)CC2)c2ccccc2O1 (stereo unspecified)	0 (no)
Cc1cccc(C(=O)N2CCc3cc(CNC(=O)Cc4ccc(F)cc4)ccc32)c1	0 (no)
O=S(=O)(Nc1ccc2nc(-c3cccc(Cl)c3)oc2c1)c1ccccc1	0 (no)
CCCn1ccc2c(OCC(=O)NCc3ccc(F)cc3)cccc2c1=O	0 (no)
COCCNc1nc(N)c([N+](=O)[O-])c(N2CCCCCC2)n1	0 (no)
CCn1c(C)c(C)c2cc(C(=O)N3CCN(c4cccc(C)c4C)CC3)ccc21	0 (no)
CC1CCN(C(=O)c2cccc(S(=O)(=O)N3CCCc4ccccc43)c2)CC1	0 (no)
CCS(=O)(=O)N1CCc2cc(C(=O)NCc3ccc(OC)cc3)ccc21	0 (no)
CCCCCn1c(=O)[nH]c2cc(C(=O)NCCN(C)CCCC)ccc2c1=O	0 (no)
CSc1oc(-c2cccs2)nc1S(=O)(=O)c1ccc(Br)cc1	0 (no)
CCOc1ccc(-c2cc3c(=O)n(CC(=O)NCc4ccc(OC)cc4)ccn3n2)cc1	0 (no)

* * *

assay_comment: qHTS assay for MDR1-selective chemotherapeutics: Primary screen using the parental adenocarcinoma cell KB-3-1; note: nearly all actives have a fitted effect of over 60% in size
reported_conditions: KB-3-1 viability, CellTiter-Glo ATP luminescence, 72 h; series mostly up to 46.1 µM
About 5,500 (1.4%) of roughly 400,000 compounds were called active. About 9% were inconclusive and are not listed. The call rests on the fitted dose curve; in most records, active means well fitted cell-killing curve with a large enough effect; inconclusive means small, poorly fitted or top-dose-only effect, or effect the other way; inactive means flat fitted curve, though single readings scatter. Only a selection was taken, and actives are over-represented in it overall.
Labels: active, inactive

compound	class_name
O=C(Nc1ccc2nc(SCCOc3ccccc3)sc2c1)c1ccco1	inactive
Cc1cccc(Nc2nc(C)nc(N)c2S(=O)(=O)c2ccccc2)c1	inactive
CC1CCCCN1Cc1c(O)ccc2c(=O)c(-c3cccc(Cl)c3)c(C(F)(F)F)oc12 (configuration not stated)	inactive
CN(C)C1=C2C=CC=CC2/C(=C2/C=Cc3ccccc32)C=C1 (configuration not stated)	inactive
COc1ccccc1/C=C/C=N/n1c(-c2ccc(Cl)cc2Cl)n[nH]c1=S	inactive
CC1=C(C(=O)Nc2ccccc2Cl)C(c2cccs2)n2ncnc2N1 (configuration not stated)	inactive
O=C(CSc1ccsc1[N+](=O)[O-])N1CCCCC1	active
CCn1c(/C=C/Nc2ccccc2)[n+](CC)c2ccc(C(=O)OCC(F)(F)F)cc21	active
COc1cc(CNCCSc2nnnn2C)ccc1OCc1ccc(Cl)cc1Cl	inactive
C=CCn1c(SCC(=O)NC(=O)Cc2ccccc2)nc2ccccc2c1=O	inactive
CCCN(CCC)c1c([N+](=O)[O-])c(=O)oc2ccccc12	inactive
CN(C)c1ccc(/C=N\Nc2ccc([N+](=O)[O-])cc2[N+](=O)[O-])cc1Cl	inactive
COc1cc(CNCCSc2nnnn2C)ccc1OCc1c(F)cccc1Cl	active
COCCN(Cc1ccco1)C(=O)Cn1ncc2c([nH]c3ccccc32)c1=O	inactive
Cc1c(-c2nsc(NC(=O)c3cccc(Cl)c3)n2)nnn1-c1ccccc1C(F)(F)F	active
CCN(CC)c1ccc(NC(=O)c2ccc(Cl)nc2)cc1	active
CN(C)c1ccc(/C=C/C(=O)c2ccc(O)cc2)cc1[N+](=O)[O-]	active
CCOc1n[nH]c(-c2ccccc2)n1	inactive
CC1CCCN(c2csc3ccc(F)cc3c2=O)C1 (configuration not stated)	inactive
COc1cc(C(=O)NCC(c2ccc(Cl)cc2)N2CCOCC2)cc(OC)c1OC (configuration not stated)	inactive
S=c1[nH]nc(-c2ccco2)n1/N=C/c1ccc(Br)s1	inactive
S=C(NCCCc1cnc[nH]1)NCCCN(Cc1ccc(Cl)c(Cl)c1)c1ccc(Br)cn1	active

* * *

assay_comment: qHTS assay for MDR1-selective chemotherapeutics: Primary screen using the parental adenocarcinoma cell KB-3-1; note: nearly all actives have a fitted effect of over 60% in size
reported_conditions: KB-3-1 viability, CellTiter-Glo ATP luminescence, 72 h; series mostly up to 46.1 µM
In all, about 400,000 compounds went through this assay and about 5,500 (1.4%) were called active. Roughly 9% stayed inconclusive and do not appear here. Calls follow the shape of the dose curve; as a rule, active = well fitted cell-killing curve with a large enough effect; inconclusive = small, poorly fitted or top-dose-only effect, or effect the other way; inactive = flat fitted curve, though single readings scatter. Many of the other results were omitted from the sample, so actives are more common in it than they were.
Labels: active, inactive

compound	class_name
Cc1nc(N=C(N)N)nc2c(C)cccc12	active
COc1cccc(CNC(=O)c2ccc3c(Cl)c4c(nc3c2)CCCC4)c1	inactive
CCOc1ccc(N(CC)C(=O)c2cc3c(=O)oc4ccccc4c3s2)cc1	inactive
CNC(=O)c1ccsc1NC(=O)c1ccc(S(=O)(=O)N2CCc3ccccc32)cc1	inactive
CC1CCCCN1S(=O)(=O)c1ccc(S(=O)(=O)N(CC(=O)Nc2ccccc2)Cc2cccs2)cc1 (stereo unspecified)	inactive
O=C(Nc1nc2ccc([N+](=O)[O-])cc2s1)c1ccc(S(=O)(=O)N2CCCc3ccccc32)cc1	active
Cc1ccc2cccc(NC(=O)c3ccc(OC(C)C)cc3)c2n1	inactive
Nc1nc(N)c(N=O)c(N)n1	inactive
CC1CN(S(=O)(=O)c2ccc(C(=O)Nc3sccc3C(N)=O)cc2)CC(C)O1 (stereo unspecified)	inactive
CCOc1ccc(OCC)c(NC(=O)c2cc(C)nc3c2c(C)nn3-c2cccc(Cl)c2C)c1	inactive
COc1nc(N=C(N)N)nc2c(C)cccc12	inactive

* * *

assay_comment: qHTS assay for MDR1-selective chemotherapeutics: Primary screen using the parental adenocarcinoma cell KB-3-1; note: nearly all actives have a fitted effect of over 60% in size; note: potency is the fitted concentration of half-maximal effect
reported_conditions: KB-3-1 viability, CellTiter-Glo ATP luminescence, 72 h; series mostly up to 46.1 µM
Among all 400,000 compounds or so, about 5,500 (1.4%) were called active. Not shown: some 9% with an inconclusive outcome. What follows is part of a selection rich in actives, with near analogues and random picks from the rest.

molecule	Potency
O=C(CSc1nnc(CNC(=O)c2ccccc2)n1-c1ccc(F)cc1)Nc1ccccc1F	inactive
CCOc1cc(C2C(C(=O)OC)=C(C)NC3=C2C(=O)c2ccccc23)ccc1O (stereo not given)	inactive
O=C(C[n+]1ccncc1)c1ccc2c(c1)CCCC2	inactive
Cc1ccc(CNC(=O)CSc2c(C)cnc3c2c(=O)n(C)c(=O)n3C)cc1	inactive
Cc1ccc(F)cc1NC(=O)CCSc1nc(-c2ccco2)cc(C(F)(F)F)n1	inactive
CC(=O)c1cccc(Nc2ccc3cc(S(=O)(=O)N4CCC(C)CC4)ccc3n2)c1	inactive
CCC(C(=O)Nc1cc(OC)ccc1OC)n1c(=O)c(C(F)(F)F)nc2ccccc21 (stereo not given)	inactive
COc1cc(Cn2c3ccc(NC(=O)CC(C)c4ccccc4)cc3c(=O)n2C)ccc1F (stereo not given)	16.4 µM (active)
CCCCOc1ccc(C(=O)Nc2cccc(-c3nc4ccccc4o3)c2C)cc1	inactive
O=[N+]([O-])c1ccc(C=Nc2ccc(Cl)cc2Cl)s1	16.4 µM (active)
